Tested on: ERK2
Construct: gene MAPK1
Conditions: concentration: 1 μM, replicates: in singlicate; n = 1;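 also: KINOMEscan kinase panel screen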

compound | %Inh, %
O=C1NC(=O)C(c2ccc(Cl)cc2)=C1Nc1ccc(O)cc1 | 0
O=c1cc(N2CCOCC2)nc2n(Cc3cccc(Cl)c3Cl)c3ccccc3n12 | 15
CNc1cc(-c2ccc3c(N)n[nH]c3c2)nc(N)n1 | 0
Cc1ccccc1Cn1ccn2c(=O)cc(N3CCOCC3)nc12 | 0
COc1ccc(CSc2nnc(-c3ccc4ncsc4c3)o2)cc1C(F)(F)F | 30

* * *

Tested on: IRAK4
Settings: concentration: 1 μM, replicates: in singlicate; n = 1
Tick Fulfilled if %Inh is 6% or greater. Tick Not fulfilled if %Inh is less than 6%.

compound | label-class
CC[C@@H]1CO[C@H](C(=O)Nc2ccccc2)CN1c1cc(-c2ccc3c(N)n[nH]c3c2)nc(NC)n1 [GSK2376236] | Not fulfilled
Cc1ccc(NC(=O)Nc2ccc(Cl)cc2)cc1-c1ccc(C(=O)Nc2ccncc2)cc1 [GSK1398472] | Fulfilled
Cl.Cl.Cl.N#Cc1ccc(CCNc2nccc(-c3cccc(CN4CCNCC4)c3)n2)cc1 [GSK2137462] | Not fulfilled
O=c1cc(N2CCOCC2)nc2n(Cc3ccccc3F)ccn12 [GSK2297428] | Not fulfilled
CC(=O)c1c(C)c2cnc(Nc3ccn(C)n3)nc2n(C2CCCC2)c1=O | Fulfilled
CC(=O)c1c(C)c2cnc(Nc3ccc(N4CCNCC4)cn3)nc2n(C2CCCC2)c1=O | Not fulfilled
CC(C)c1cc(-c2ccc3c(N)n[nH]c3c2)nc(N)n1 [GSK2250882] | Not fulfilled
Cc1ccc(NC(=O)c2ccc(Cl)cc2)cc1-c1ccc(C(=O)Nc2ccncc2)cc1 [GSK1398467] | Fulfilled
COC(=O)c1cccc(NC(=O)NC2CCN(c3ccnc(Nc4ccc(F)cc4)n3)C2)c1 (centres unmarked) [GSK1379725] | Fulfilled
COc1ccc(-c2coc3ccc(-c4nnc(C)o4)cc23)cc1 | Fulfilled

* * *

System: FLT4
Settings: concentration: 1 μM, replicates: in singlicate; n = 1
Recorded %Inh by entry
readout-name: %Inh (%)

compound | target-under-test | readout-name | readout-number
COc1cccc(CNC(=O)NC2CCN(c3ccnc(Nc4ccc(F)cc4)n3)C2)c1 (centres unmarked) | FLT4 | %Inh | 12
CNc1cc(-c2ccc3c(N)n[nH]c3c2)nc(N)n1 | FLT4 | %Inh | 2
CC(=O)c1cccc(NC(=O)NC2CCN(c3ccnc(Nc4ccc(F)cc4)n3)C2)c1 (centres unmarked) | FLT4 | %Inh | 12
COc1ccc(Nc2nccc(N3CCC(NC(=O)C(C)c4ccc(Cl)cc4)C3)n2)cc1 (centres unmarked) | FLT4 | %Inh | 5
Nc1cccc(-c2ccc3c(N)n[nH]c3c2)n1 | FLT4 | %Inh | 0

* * *

Tested on: ARK5
Construct: gene NUAK1
Settings: concentration: 1 μM, replicates: in singlicate; n = 1

compound | %Inh
COc1ccc(-c2coc3ccc(-c4nnc(C)o4)cc23)cc1 | 0%
COc1cc2ncnc(Nc3cccc(Br)c3)c2cc1OC.Cl | 17%
CCn1c(-c2ccccc2)nc2cnccc21 | 8%
COc1nccc(-c2c(-c3ccc(F)cc3)ncn2CCCN2CCOCC2)n1 | 0%
Cc1ccccc1-c1cc(-c2c[nH]nc2-c2ccccn2)ccn1 | 0%
CNc1nc(-c2ccc3c(N)n[nH]c3c2)cc(N2C[C@@H](C(=O)Nc3ccccc3)CC[C@H]2C)n1 | 25%
FC(F)(F)c1ccccc1-c1cc(-c2c[nH]nc2-c2ccccn2)ccn1 | 0%
CNc1nc(-c2ccc3c(N)n[nH]c3c2)cc(N2C[C@@H](C(=O)NC3CCCCC3)OC[C@H]2C)n1 | 23%
O=C1NC(=O)C(c2ccc(Cl)cc2)=C1Nc1ccc(O)cc1 | 0%
Fc1ccc(-c2nn3cccc(F)c3c2-c2ccncc2)cc1 | 16%
Cn1cnc2c(N)ncnc21 | 0%
COC(=O)C(Cc1ccccc1)NC(=O)NC1CCN(c2ccnc(Nc3ccc(F)cc3)n2)C1 (stereo not drawn) | 0%
